Kindly supply the reported IC50 values for the records listed here.
Test system: HSV-1 strain K26 (GFP-expressing)
Assay: 3D bioprinted HSE, submerged model, apical HSV-1 infection, GFP signal
Assay type: cell-based
Conditions: Human alphaherpesvirus 1, read-out: submerged IC50 (μM)
The answer consists of two parts: a number and, after it, its unit.

Name the reported IC50 value associated with the compound CC1(C)CC(=O)c2c(C(F)(F)F)nn(-c3ccc(C(N)=O)c(N[C@H]4CC[C@H](O)CC4)c3)c2C1 [SNX-2112]
0.05 µM

Ok, now CC(=O)O[C@H]1C[C@H](O[C@H]2[C@@H](O)C[C@H](O[C@H]3[C@@H](O)C[C@H](O[C@H]4CC[C@@]5(C)[C@H](CC[C@@H]6[C@@H]5C[C@@H](O)[C@]5(C)[C@@H](C7=CC(=O)OC7)CC[C@]65O)C4)O[C@@H]3C)O[C@@H]2C)O[C@H](C)[C@H]1O[C@@H]1O[C@H](CO)[C@@H](O)[C@H](O)[C@H]1O [Lanatoside C]
0.09 µM

Repeat with Cc1cccc(C)c1N(CC(=O)Nc1ccc(-c2ncon2)cc1)C(=O)C1CCS(=O)(=O)CC1 [Amenamevir]
0.27 µM

Another compound to check: O=C(/C=C\n1cnc(-c2cc(C(F)(F)F)cc(C(F)(F)F)c2)n1)NNc1ccccn1 [Verdinexor]
0.48 µM

Next compound up: O=C(Nc1ccc([N+](=O)[O-])cc1Cl)c1cc(Cl)ccc1O [Niclosamide]
0.39 µM

// repeat for Nc1ccn([C@@H]2O[C@H](CO)[C@@H](O)C2(F)F)c(=O)n1 [Gemcitabine] and report
0.19 µM

Try the compound Cc1nc(N(C)C(=O)Cc2ccc(-c3ccccn3)cc2)sc1S(N)(=O)=O [Pritelivir]
0.5 µM

Okay, and COc1ccc(-c2nc(N3CCOCC3)c3sc(CN(C)c4ncc(C(=O)NO)cn4)cc3n2)cn1 [Fimepinostat] ?
1.48 µM

----------
Test system: HSV-1 strain K26 (GFP-expressing)
Assay: 3D bioprinted HSE, ALI model, basolateral HSV-1 infection, GFP signal
Format: cell-based
Details: read-out: ALI IC50; triplicate, 48HPI
measuredProperty: pIC50
pIC50 is defined as minus the log10 of a concentration measured in mol/L.

What value of measured pIC50 is listed for CC(C)c1cnn2c(NCc3ccccc3-n3cccn3)nc(OC3CCCNC3)nc12 (stereo not shown) [LDC4297] ?
6.96

----------
Assay: 3D bioprinted HSE, submerged model, tdTomato signal
Format: cell-based, human
Settings: human
For each record, write down the corresponding CC50 at 48 h.

# input compound: CC1(C)CC(=O)c2c(C(F)(F)F)nn(-c3ccc(C(N)=O)c(N[C@H]4CC[C@H](O)CC4)c3)c2C1 [SNX-2112] ; wanted: its CC50 at 48 h
1.14 µM

Further, for Nc1ccn([C@@H]2O[C@H](CO)[C@@H](O)C2(F)F)c(=O)n1 [Gemcitabine] ?
> 10 µM

Can you handle Cc1cccc(C)c1N(CC(=O)Nc1ccc(-c2ncon2)cc1)C(=O)C1CCS(=O)(=O)CC1 [Amenamevir] next?
> 10 µM

Request: O=C(/C=C\n1cnc(-c2cc(C(F)(F)F)cc(C(F)(F)F)c2)n1)NNc1ccccn1 [Verdinexor]
> 10 µM

What do you get for O=C(Nc1ccc([N+](=O)[O-])cc1Cl)c1cc(Cl)ccc1O [Niclosamide] ?
> 10 µM

Moving on to Cc1nc(N(C)C(=O)Cc2ccc(-c3ccccn3)cc2)sc1S(N)(=O)=O [Pritelivir]
> 10 µM

What would you report for CC(=O)O[C@H]1C[C@H](O[C@H]2[C@@H](O)C[C@H](O[C@H]3[C@@H](O)C[C@H](O[C@H]4CC[C@@]5(C)[C@H](CC[C@@H]6[C@@H]5C[C@@H](O)[C@]5(C)[C@@H](C7=CC(=O)OC7)CC[C@]65O)C4)O[C@@H]3C)O[C@@H]2C)O[C@H](C)[C@H]1O[C@@H]1O[C@H](CO)[C@@H](O)[C@H](O)[C@H]1O [Lanatoside C] ?
2.49 µM

Again, but for COc1ccc(-c2nc(N3CCOCC3)c3sc(CN(C)c4ncc(C(=O)NO)cn4)cc3n2)cn1 [Fimepinostat]
> 10 µM

----------
Hi there, I'd appreciate the recorded CC50 for every entry that follows.
Tested on: tdTomato fibroblasts
Test: 3D bioprinted HSE, ALI model, tdTomato signal
Type: cell-based, human
Conditions: read-out: ALI CC50; tdTomato fibroblasts, triplicate

Fill in the recorded CC50 for this compound, with tdTomato fibroblasts as test system: CC(C)c1cnn2c(NCc3ccccc3-n3cccn3)nc(OC3CCCNC3)nc12 (centres unmarked)
> 10 µM

Cool, now C=CC(=O)N1CC/C(=C\c2ccc(F)c([N+](=O)[O-])c2)C(=O)/C(=C/c2ccc(F)c([N+](=O)[O-])c2)C1
> 10 µM

----------
Tested on: tdTomato fibroblasts
Assay: 3D bioprinted HSE, submerged model, tdTomato signal
Type: cell-based, human
Conditions: read-out: submerged CC50; tdTomato fibroblasts, triplicate
measuredProperty: CC50 (µM)
Only the number, expressed in µM, is required.

Any idea what CC50 came out for C=CC(=O)N1CC/C(=C\c2ccc(F)c([N+](=O)[O-])c2)C(=O)/C(=C/c2ccc(F)c([N+](=O)[O-])c2)C1 on tdTomato fibroblasts?
8.41

----------
Test system: HSV-1 strain K26 (GFP-expressing)
Assay: 3D bioprinted HSE, ALI model, basolateral HSV-1 infection, GFP signal
Assay type: cell-based
Details: Human alphaherpesvirus 1
measuredProperty: IC50

Form field: reported IC50 of Nc1nc2c(ncn2COCCO)c(=O)[nH]1
< 40 nM

----------
System: HSV-1 strain K26 (GFP-expressing)
Assay: 3D bioprinted HSE, submerged model, apical HSV-1 infection, GFP signal
Type: cell-based
Conditions: read-out: submerged IC50; triplicate, 48HPI
measuredProperty: IC50 (µM)
Value expressed in µM; do not type the unit.

Which IC50 is listed for C=CC(=O)N1CC/C(=C\c2ccc(F)c([N+](=O)[O-])c2)C(=O)/C(=C/c2ccc(F)c([N+](=O)[O-])c2)C1 ?
6.67

Follow-up entry: CC(C)c1cnn2c(NCc3ccccc3-n3cccn3)nc(OC3CCCNC3)nc12 (centres unmarked)
0.68
